- System Tested: His-p53 Y220C (94-294) protein (Homo sapiens, UniProt P04637, Y220C)
- Construct: His-p53 Y220C (94-294) protein
- Test: In vitro DNA binding assay (HTRF)
- Settings: % activation normalized to 2 μM Ref-1a high control

| Line Notation | EC50 [nM] |
| --- | --- |
| COc1cc(S(=O)(=O)N2CCOCC2)ccc1NCC#Cc1sc2c(NC3CCN(C)CC3)cccc2c1CC(F)(F)F | 288 |
| COc1cc(P(C)(C)=O)ccc1NCC#Cc1sc2c(N[C@@H]3CCN(C)C[C@@H]3F)cccc2c1CC(F)(F)F | 23 |
| CN1CC[C@@H](Nc2cccc3c(CC(F)(F)F)c(C#CCNc4ccc(P(C)(C)=O)c5c4OC(F)(F)O5)sc23)[C@@H](F)C1 | 120 |

###

- System Tested: His-p53 Y220C (94-294) protein (Homo sapiens, UniProt P04637, Y220C)
- Construct: His-p53 Y220C (94-294) protein
- Test: In vitro DNA binding assay (HTRF)
- Settings: % activation normalized to 2 μM Ref-1a high control

| Compound | EC50 / nM |
| --- | --- |
| COc1cc(S(C)(=O)=O)ccc1NCC#Cc1cc2c(N[C@@H]3CCN(C)C[C@@H]3F)cccc2n1CC(F)(F)F [Ref-1a, reference compound] | 48 |
| COc1cc(P(=O)(C2CC2)C2CC2)ccc1NCC#Cc1sc2c(N[C@@H]3CCN(C)C[C@@H]3F)cccc2c1CC(F)(F)F (racemic) [Example 99] | 87 |
| COc1cc(C(N)=O)ccc1NCC#Cc1sc2c(NC3CCN(C)CC3F)cccc2c1CC(F)(F)F (stereo not drawn) | 47 |
| COc1cc(P(C)(C)=O)ccc1NCC#Cc1sc2c(NC3CCN(C)CC3C(F)(F)F)cccc2c1CC(F)(F)F (racemic) [Example 169] | 70 |
| CN1CC[C@@H](Nc2cccc3c(CC(F)(F)F)c(C#CCNc4ccc(P(C)(C)=O)cc4C(F)(F)F)sc23)[C@@H](F)C1 | 35 |
| COc1cc(P(C)(C)=O)ccc1NCC#Cc1sc2c(N[C@H]3CCN(C)C[C@H]3C)cccc2c1CC(F)(F)F | 54 |
| CNC(=O)c1ccc(NCC#Cc2sc3c(NC4CCN(C)CC4F)cccc3c2CC(F)(F)F)c(OC)n1 (stereo not drawn) | 64 |
| COc1cc(P(C)(C)=O)ccc1NCC#Cc1sc2c(N[C@@H]3CCN(C4CCCC4)C[C@@H]3F)cccc2c1CC(F)(F)F (relative stereo) | 82 |
| COc1cc(S(C)(=O)=O)ccc1NCC#Cc1sc2c(NC3CCCN(C)CC3)cccc2c1CC(F)(F)F (stereo not drawn) | 122 |
| COCC(O)CN1CC[C@@H](Nc2cccc3c(CC(F)(F)F)c(C#CCNc4ccc(P(C)(C)=O)cc4OC)sc23)[C@@H](F)C1 (relative stereo) | 71 |
| CN1CCC(Nc2cccc3c(CC(F)(F)F)c(C#CCNc4cccc5cc[nH]c45)sc23)CC1 | 6400 |
| CCN1CC[C@@H](Nc2cccc3c(CC(F)(F)F)c(C#CCNc4ccc(P(C)(C)=O)cc4OC)sc23)[C@@H](F)C1 (racemic) [Example 100] | 40 |
| COc1cc(S(C)(=O)=O)ccc1NCC#Cc1sc2c(N(C)C3CCN(C)CC3F)cccc2c1CC(F)(F)F (stereo not drawn) | 654 |
| COc1cc(P(C)(C)=O)ccc1NCC#Cc1sc2c(N[C@@H]3CCN(C4COC4)C[C@@H]3F)cccc2c1CC(F)(F)F (racemic) | 82 |
| CSc1c(NCC#Cc2sc3c(N[C@@H]4CCN(C)C[C@@H]4F)cccc3c2CC(F)(F)F)ccc(P(C)(C)=O)c1F | 169 |
| CNC(=O)c1ccc(NCC#Cc2sc3c(NC4CCN(C)CC4)cccc3c2CC(F)(F)F)c(OC)c1 | 112 |
| COc1cc(S(N)(=O)=O)ccc1NCC#Cc1sc2c(NC3CCN(C)CC3F)cccc2c1CC(F)(F)F (stereo not drawn) | 60 |
| COc1cc(P(C)(C)=O)ccc1NCC#Cc1sc2c(N[C@H]3CCN(C)C[C@@H]3C)cccc2c1CC(F)(F)F | 38 |
| CN1CC[C@H](Nc2cccc3c(CC(F)(F)F)c(C#CCNc4ccc(P(C)(C)=O)cc4OC(F)(F)F)sc23)[C@H](F)C1 | 78 |
| COc1cc(P(=O)(C2CC2)C2CC2)ccc1NCC#Cc1sc2c(N[C@@H]3CCN(C)C[C@@H]3F)cccc2c1CC(F)(F)F [Example 141] | 49 |
| COc1cc(P(C)(C)=O)ccc1NCC#Cc1sc2c(NC3CCN(C)CC3F)cccc2c1CC(F)(F)F (stereo not drawn) | 34 |

###

- System Tested: His-p53 Y220C (94-294) protein (Homo sapiens, UniProt P04637, Y220C)
- Construct: His-p53 Y220C (94-294) protein
- Test: In vitro DNA binding assay (HTRF)
- Settings: % activation normalized to 2 μM Ref-1a high control

| Compound | Result Unit | EC50 |
| --- | --- | --- |
| CN1CC[C@@H](Nc2cccc3c(CC(F)(F)F)c(C#CCNc4ccc(P(C)(C)=O)cc4-c4cc[nH]n4)sc23)[C@@H](F)C1 | nM | 25 |
| COc1cc(P(C)(C)=O)ccc1NCC#Cc1sc2c(NC3[C@@H]4COC[C@H]3CN(C)C4)cccc2c1CC(F)(F)F (single isomer, unassigned) [Example 196] | nM | 67 |
| CN1CC[C@@H](Nc2cccc3c(CC(F)(F)F)c(C#CCNc4ccc(P(C)(C)=O)cc4C#N)sc23)[C@@H](F)C1 | nM | 52 |
| COc1cc(P(C)(C)=O)ccc1NCC#Cc1sc2c(NC3CCN(C)CC3F)cccc2c1CC#N (stereo not shown) [Example 133] | nM | 311 |

###

- System Tested: His-p53 Y220C (94-294) protein (Homo sapiens, UniProt P04637, Y220C)
- Construct: His-p53 Y220C (94-294) protein
- Test: In vitro DNA binding assay (HTRF)
- Settings: % activation normalized to 2 μM Ref-1a high control
pEC50: −log10 of the molar value.
Result Type: pEC50

| Molecule | Endpoint Value |
| --- | --- |
| COc1cc(S(C)(=O)=O)ccc1NCC#Cc1cc2c(N[C@H]3CC[C@@H](N4CC5(COC5)C4)CC3)cccc2n1CC(F)(F)F | 6.80 |
| COc1cc(S(=O)(=O)N(C)C)ccc1NCC#Cc1sc2c(NC3CCN(C)CC3)cccc2c1CC(F)(F)F | 6.47 |
| [2H]C([2H])([2H])Oc1cc(P(C)(C)=O)ccc1NCC#Cc1sc2c(N[C@@H]3CCN(C4CCOCC4)C[C@@H]3F)cccc2c1CC(F)(F)F | 7.38 |
| COc1cc(P(C)(C)=O)ccc1NCC#Cc1sc2c(N[C@H]3CCN(C)C[C@H]3Cl)cccc2c1CC(F)(F)F | 6.99 |
| COc1cc(C(=O)NC2CCN(C)CC2(F)F)ccc1NCC#Cc1sc2c(N[C@@H]3CCN(C)C[C@@H]3F)cccc2c1CC(F)(F)F (relative stereo) | 7.07 |
| COc1cc(P(C)(C)=O)ccc1NCC#Cc1sc2c(N[C@@H]3CCN(C)C[C@@H]3C)cccc2c1CC(F)(F)F | 7.44 |
| COc1cc(C(=O)N2CCS(=O)(=O)CC2)ccc1NCC#Cc1sc2c(N[C@H]3CCN(C)C[C@H]3F)cccc2c1CC(F)(F)F (racemic) | 7.08 |
| COc1cc(C(=O)NC2CCN(C)CC2)ccc1NCC#Cc1sc2c(NC3CCN(C)CC3F)cccc2c1CC(F)(F)F (racemic) | 7.70 |
| CCP(=O)(CC)c1ccc(NCC#Cc2sc3c(NC4CCN(C)CC4F)cccc3c2CC(F)(F)F)c(OC)c1 (centres unmarked) | 7.42 |
| COc1cc(P(C)(C)=O)ccc1NCC#Cc1sc2c(NC3C(C)CN(C)CC3C)cccc2c1CC(F)(F)F (centres unmarked) [Example 132] | 7.23 |
| COc1cc(P(C)(C)=O)ccc1NCC#Cc1sc2c(N[C@@H]3CCN(C4CCOC4)C[C@@H]3F)cccc2c1CC(F)(F)F (some centres unmarked) | 7.17 |
| CNC(=O)c1cc(OC)c(NCC#Cc2sc3c(NC4CCN(C)CC4F)cccc3c2CC(F)(F)F)cn1 (centres unmarked) | 7.14 |
| COc1cc(P(C)(C)=O)ccc1NCC#Cc1sc2c(N[C@@H]3CCN(C)C[C@H]3C)cccc2c1CC(F)(F)F | 7.28 |
| CNC(=O)c1ccc(NCC#Cc2cc3c(N[C@H]4CCN(C)C[C@H]4F)cccc3n2CC(F)(F)F)c(OC)c1 | 7.00 |
